Assign Kd to each entry below.
Biological target: T1, IFN-αWA (human, UniProt P05015 24-189)
T1 construct: also called IFN-α16; alpha WA
Test: ProteOn, one antigen concentration
Answers are plain numbers, in nM.

Here is how some binders turned out for Kd.
[[record]]
binder = "IFWM3322 (antibody, V domains shown, VH IFWH591, VL IFWL1051; converted mAb; also called IFWB3057) VH: EVQLVQSGAEVKKPGESLKISCKGSGYSFTSYWIGWVRQMPGKGLEWMGIIDPSDSDTRYSPSFQGQVTISADKSISTAYLQWSSLKASDTAMYYCARHPGLNWAPDFDYWGQGTLVTVSS VL: DIQMTQSPSSLSASVGDRVTITCRASQSIADFLNWYQQKPGKAPKLLIYFASSLQSGVPSRFSGSGSGTDFTLTISSLQPEDFATYYCQQSHSFPLTFGQGTKVEIK"
reading = 0.086

[[record]]
binder = "IFWM3308 (antibody, V domains shown, VH IFWH591, VL IFWL1004; converted mAb; also called IFWB3043) VH: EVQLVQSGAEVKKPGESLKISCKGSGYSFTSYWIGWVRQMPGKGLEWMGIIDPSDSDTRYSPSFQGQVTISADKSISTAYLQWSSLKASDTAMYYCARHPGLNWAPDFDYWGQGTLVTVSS VL: DIQMTQSPSSLSASVGDRVTITCRASQSIAEFLNWYQQKPGKAPKLLIYFASSLQSGVPSRFSGSGSGTDFTLTISSLQPEDFATYYCQQSIDFPLTFGQGTKVEIK"
reading = 0.099

[[record]]
binder = "IFWM3303 (antibody, V domains shown, VH IFWH591, VL IFWL992; converted mAb; also called IFWB3038) VH: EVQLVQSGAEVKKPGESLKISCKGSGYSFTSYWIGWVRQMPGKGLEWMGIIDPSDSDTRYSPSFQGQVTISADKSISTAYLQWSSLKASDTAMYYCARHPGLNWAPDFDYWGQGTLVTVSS VL: DIQMTQSPSSLSASVGDRVTITCRASQSIGSFLNWYQQKPGKAPKLLIYFASSLQSGVPSRFSGSGSGTDFTLTISSLQPEDFATYYCQQSYSIPITFGQGTKVEIK"
reading = 0.168

[[record]]
binder = "IFWM3346 (antibody, V domains shown, VH IFWH624, VL IFWL1001; converted mAb; also called IFWB3081) VH: EVQLVQSGAEVKKPGESLKISCKGSGYSFTSYWIGWVRQMPGKGLEWMGIIDPSDSDTAYSPSFQGQVTISADKSISTAYLQWSSLKASDTAMYYCARHPGLNWAPDFDYWGQGTLVTVSS VL: DIQMTQSPSSLSASVGDRVTITCRASQSIGDFLNWYQQKPGKAPKLLIYFASSLQSGVPSRFSGSGSGTDFTLTISSLQPEDFATYYCQQALDFPLTFGQGTKVEIK"
reading = 0.17


Hi there! I need Kd for each item below, if you can.
1. IFWM3344 (antibody, V domains shown, VH IFWH624, VL IFWL998; converted mAb; also called IFWB3079) VH: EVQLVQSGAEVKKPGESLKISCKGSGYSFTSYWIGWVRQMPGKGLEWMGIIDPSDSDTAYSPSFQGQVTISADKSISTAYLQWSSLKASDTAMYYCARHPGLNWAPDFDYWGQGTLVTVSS VL: DIQMTQSPSSLSASVGDRVTITCRASQSISKFLNWYQQKPGKAPKLLIYFASSLQSGVPSRFSGSGSGTDFTLTISSLQPEDFATYYCQQSNTLPFTFGQGTKVEIK
2. IFWM3359 (antibody, V domains shown, VH IFWH624, VL IFWL1047; converted mAb; also called IFWB3094) VH: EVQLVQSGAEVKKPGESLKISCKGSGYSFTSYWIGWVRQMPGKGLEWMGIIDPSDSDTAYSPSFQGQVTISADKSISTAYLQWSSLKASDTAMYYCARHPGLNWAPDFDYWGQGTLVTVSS VL: DIQMTQSPSSLSASVGDRVTITCRASQSINGVLNWYQQKPGKAPKLLIYFASSLQSGVPSRFSGSGSGTDFTLTISSLQPEDFATYYCQQSHDFPLTFGQGTKVEIK
3. IFWM3361 (antibody, V domains shown, VH IFWH624, VL IFWL1051; converted mAb; also called IFWB3096) VH: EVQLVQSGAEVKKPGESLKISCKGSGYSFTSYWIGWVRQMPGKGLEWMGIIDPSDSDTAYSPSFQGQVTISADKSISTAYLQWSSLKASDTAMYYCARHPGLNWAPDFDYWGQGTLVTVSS VL: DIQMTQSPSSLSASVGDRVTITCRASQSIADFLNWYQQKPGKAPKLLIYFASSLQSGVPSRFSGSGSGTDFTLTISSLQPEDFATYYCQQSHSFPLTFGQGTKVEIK
4. IFWM3316 (antibody, V domains shown, VH IFWH591, VL IFWL1022; converted mAb; also called IFWB3051) VH: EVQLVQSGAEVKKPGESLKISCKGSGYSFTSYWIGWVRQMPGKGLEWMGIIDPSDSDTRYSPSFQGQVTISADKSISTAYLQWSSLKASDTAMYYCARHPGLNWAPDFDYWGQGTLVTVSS VL: DIQMTQSPSSLSASVGDRVTITCRASQSINEFLNWYQQKPGKAPKLLIYFASSLQSGVPSRFSGSGSGTDFTLTISSLQPEDFATYYCQQSYSTPLTFGQGTKVEIK
5. IFWM3358 (antibody, V domains shown, VH IFWH624, VL IFWL1041; converted mAb; also called IFWB3093) VH: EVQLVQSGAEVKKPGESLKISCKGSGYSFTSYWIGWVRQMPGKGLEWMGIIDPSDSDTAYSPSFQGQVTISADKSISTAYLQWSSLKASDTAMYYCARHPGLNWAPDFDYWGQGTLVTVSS VL: DIQMTQSPSSLSASVGDRVTITCRASQSITGFLNWYQQKPGKAPKLLIYAASSLQSGVPSRFSGSGSGTDFTLTISSLQPEDFATYYCQQSHDFPLTFGQGTKVEIK

Completion:
1. 0.105
2. 0.051
3. 0.098
4. 0.073
5. 0.123

Data point: IFWM3291 (antibody, V domains shown, VH IFWH591, VL IFWL999; converted mAb; also called IFWB3026) VH: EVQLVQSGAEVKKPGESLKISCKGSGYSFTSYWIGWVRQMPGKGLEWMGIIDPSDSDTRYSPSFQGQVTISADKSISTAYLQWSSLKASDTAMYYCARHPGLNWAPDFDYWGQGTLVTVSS VL: DIQMTQSPSSLSASVGDRVTITCRASQSIDEFLNWYQQKPGKAPKLLIYFASSLQSGVPSRFSGSGSGTDFTLTISSLQPEDFATYYCQQAHSFPLTFGQGTKVEIK ; Kd = 0.125
